# assay method text: Stability of BIRB 796 in PEG 400 as function of temperature, storage atmosphere and light exposure
# Assay type: physicochemical
# condition parameters: solution in PEG 400, PEG 400, C0 = 30 mg/mL; 40° C., air
observable: half-life at 30 mg/mL

half-life at 30 mg/mL lookup needed for Cc1ccc(-n2nc(C(C)(C)C)cc2NC(=O)Nc2ccc(OCCN3CCOCC3)c3ccccc23)cc1 [BIRB 796] , thanks.
36.1 days

###

# assay method text: Effect of cyclodextrins on the aqueous solubility of BIRB 796
# Type: physicochemical
# condition parameters: aqueous cyclodextrin solution, aqueous with cosolvent or surfactant or cyclodextrin, aqueous, SBECD 1 % w/v
observable: solubility (µg/mL)
Write the value in µg/mL as a bare number.

Given Cc1ccc(-n2nc(C(C)(C)C)cc2NC(=O)Nc2ccc(OCCN3CCOCC3)c3ccccc23)cc1 [BIRB 796] , state its recorded solubility.
21

###

# assay method text: Effect of cyclodextrins on the aqueous solubility of BIRB 796
# Assay type: physicochemical
# condition parameters: aqueous cyclodextrin solution, aqueous with cosolvent or surfactant or cyclodextrin, aqueous, HPBCD 25 % w/v
observable: solubility (µg/mL)
Enter your answer as a number in µg/mL; do not include the unit.

Endpoint output: solubility of Cc1ccc(-n2nc(C(C)(C)C)cc2NC(=O)Nc2ccc(OCCN3CCOCC3)c3ccccc23)cc1 . Value?
1540

###

# assay method text: Stability of BIRB 796 in PEG 400 as function of temperature, storage atmosphere and light exposure
# Format: physicochemical
# condition parameters: solution in PEG 400, PEG 400, C0 = 30 mg/mL; 23° C., air (dark)
observable: half-life at 30 mg/mL (days)
Report the value in days with no unit label.

Give its half-life at 30 mg/mL value. Item: Cc1ccc(-n2nc(C(C)(C)C)cc2NC(=O)Nc2ccc(OCCN3CCOCC3)c3ccccc23)cc1 [BIRB 796]
274

###

# assay method text: Effect of cyclodextrins on the aqueous solubility of BIRB 796
# Type: physicochemical
# condition parameters: aqueous cyclodextrin solution, aqueous with cosolvent or surfactant or cyclodextrin, aqueous, BCD 0.7 % w/v
# Protocol: Complexing cyclodextrin agents were evaluated as a means to improve the solubility of BIRB 796. The solubility of BIRB 796 was evaluated as a function of the concentrations of underivatized parent β-cyclodextrin (BCD), the alkylated derivatives hydroxpropyl-B-sulfobutylether-B-cyclodextrin (SBECD). […]
observable: solubility (µg/mL)
Answer format: numeric, µg/mL implied, no suffix.

Give its solubility value. Item: Cc1ccc(-n2nc(C(C)(C)C)cc2NC(=O)Nc2ccc(OCCN3CCOCC3)c3ccccc23)cc1
44

###

# assay method text: Stability of BIRB 796 in PEG 400 as function of temperature, storage atmosphere and light exposure
# Format: physicochemical
# condition parameters: solution in PEG 400, PEG 400, C0 = 30 mg/mL; 23° C., air, light
observable: half-life at 30 mg/mL (days)
Give the value in days but do not write days after it.

Form field: reported half-life at 30 mg/mL of Cc1ccc(-n2nc(C(C)(C)C)cc2NC(=O)Nc2ccc(OCCN3CCOCC3)c3ccccc23)cc1 [BIRB 796]
88.8

###

# assay method text: Effect of cyclodextrins on the aqueous solubility of BIRB 796
# Format: physicochemical
# condition parameters: aqueous cyclodextrin solution, aqueous with cosolvent or surfactant or cyclodextrin, aqueous, HPBCD 2.5 % w/v
observable: solubility (µg/mL)
Report the value in µg/mL with no unit label.

Reported solubility, compound Cc1ccc(-n2nc(C(C)(C)C)cc2NC(=O)Nc2ccc(OCCN3CCOCC3)c3ccccc23)cc1 [BIRB 796] : ____
49

###

# assay method text: Effect of cyclodextrins on the aqueous solubility of BIRB 796
# Type: physicochemical
# condition parameters: aqueous cyclodextrin solution, aqueous with cosolvent or surfactant or cyclodextrin, aqueous, SBECD 5 % w/v
observable: solubility (µg/mL)
State just the number; it will be interpreted in µg/mL.

Entry under review: Cc1ccc(-n2nc(C(C)(C)C)cc2NC(=O)Nc2ccc(OCCN3CCOCC3)c3ccccc23)cc1 . Reported solubility?
156

###

# assay method text: Effect of cyclodextrins on the aqueous solubility of BIRB 796
# Assay type: physicochemical
# condition parameters: aqueous cyclodextrin solution, aqueous with cosolvent or surfactant or cyclodextrin, aqueous, SBECD 25 % w/v
observable: solubility
Returns: string containing the number followed by the unit.

Looking for the measured solubility of Cc1ccc(-n2nc(C(C)(C)C)cc2NC(=O)Nc2ccc(OCCN3CCOCC3)c3ccccc23)cc1 , can you help?
2170 µg/mL

###

# assay method text: Effect of cyclodextrins on the aqueous solubility of BIRB 796
# Type: physicochemical
# condition parameters: aqueous solution without cyclodextrin, aqueous, no cyclodextrin (0 % w/v)
observable: solubility (µg/mL)
Report the value in µg/mL with no unit label.

Suppose we examine the compound Cc1ccc(-n2nc(C(C)(C)C)cc2NC(=O)Nc2ccc(OCCN3CCOCC3)c3ccccc23)cc1 ; what solubility value has been reported?
3.3

###

# assay method text: Effect of cyclodextrins on the aqueous solubility of BIRB 796
# Format: physicochemical
# condition parameters: aqueous cyclodextrin solution, aqueous with cosolvent or surfactant or cyclodextrin, aqueous, HPBCD 5 % w/v
observable: solubility (µg/mL)
Your answer should be a plain number; it is taken to be in µg/mL.

# lookup: solubility of Cc1ccc(-n2nc(C(C)(C)C)cc2NC(=O)Nc2ccc(OCCN3CCOCC3)c3ccccc23)cc1
137

###

# assay method text: Effect of cyclodextrins on the aqueous solubility of BIRB 796
# Format: physicochemical
# condition parameters: aqueous cyclodextrin solution, aqueous with cosolvent or surfactant or cyclodextrin, aqueous, BCD 2 % w/v
observable: solubility (µg/mL)
Unit µg/mL implied. Number only.

Find the recorded solubility belonging to Cc1ccc(-n2nc(C(C)(C)C)cc2NC(=O)Nc2ccc(OCCN3CCOCC3)c3ccccc23)cc1 and report it.
87
